Measured IC50 values are reported for all entries that follow.
target: hcGAS (Homo sapiens); test: hcGAS LCMS assay (direct measurement of cGAMP production); format: biochemical; settings: 0.5 nM hcGAS, 100 μM ATP, 100 μM GTP, 25 nM dsDNA, 4 h incubation
Sequence (Q8N884 whole entry): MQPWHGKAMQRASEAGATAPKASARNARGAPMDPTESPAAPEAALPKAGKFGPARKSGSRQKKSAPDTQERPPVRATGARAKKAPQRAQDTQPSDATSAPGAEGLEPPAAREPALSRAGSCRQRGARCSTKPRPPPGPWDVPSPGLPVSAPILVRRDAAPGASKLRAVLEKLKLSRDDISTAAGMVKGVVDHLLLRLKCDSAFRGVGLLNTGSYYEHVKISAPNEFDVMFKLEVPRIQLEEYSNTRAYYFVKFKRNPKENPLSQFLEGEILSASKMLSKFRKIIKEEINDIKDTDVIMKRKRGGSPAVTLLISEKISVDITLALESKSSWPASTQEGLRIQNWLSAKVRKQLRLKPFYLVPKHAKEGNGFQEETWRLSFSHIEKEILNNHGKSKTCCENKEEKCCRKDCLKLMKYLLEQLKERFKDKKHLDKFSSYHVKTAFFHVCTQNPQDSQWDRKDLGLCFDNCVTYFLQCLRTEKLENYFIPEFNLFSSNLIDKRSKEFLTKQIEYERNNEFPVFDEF

COc1c(N[C@H]2CCC[C@@H]2OC)cc(C(=O)Nc2nnc(-n3nccc3C)s2)oc1=O (racemic) [Rac-107] = 0.005 to 0.02 µM
COc1c(N[C@H]2CC[C@@H](OC)C2)cc(C(=O)Nc2nnc(-n3nccc3C)s2)oc1=O (racemic) [Rac-108] = 0.005 to 0.02 µM

# ---- query compound ----
What does the record list as IC50 for COc1c(N(CCO)CCO)cc(C(=O)Nc2nnc(-n3nccc3C)s2)oc1=O (single isomer, unassigned) ?
0.06 to 0.2 µM
